Recorded z-score values for a group of compounds are listed next.
- Test Summary: basal RPMI8226 viability, no added stimulus, profiling panel, cell-based, calcein-AM fluorescence, 48 h, PK04 Diversity Set (AID 1166);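 further: cells grown under basal conditions without added stimulus; test concentration not given here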
- Settings: RPMI8226 myeloma viability, higher = more signal
Lab note: jot down the number only; don't add units.

- Compound: "COc1ccc(OC[C@H]2Cc3c(-c4ccccc4)nc4c(c3CO2)CN(CCOc2ccccc2)CC4)cc1"
  Value Reported: -1.81
- Compound: "CC(=O)OC[C@H]1O[C@@H](ON=C(C)CCN2CCc3nc(-c4ccccc4)c(-c4ccccc4)cc3C2)[C@H](OC(C)=O)[C@@H](OC(C)=O)[C@@H]1OC(C)=O"
  Value Reported: -0.162
- Compound: "COC(=O)C1=C(C)[C@@H](O)[C@@H](C)[C@H](c2c(OC)c(OC)c(C)c(OC)c2OC)O1"
  Value Reported: -0.976
- Compound: "CCCCCN1CC=CC23O[C@@H]4C=CCOC(=O)[C@@H]4[C@H]2C(=O)N(C(CO)C(C)C)[C@@H]3C1=O (stereo not given in full)"
  Value Reported: 0.12
- Compound: "Cc1ccc(S(=O)(=O)N[C@@H]2COC(=O)[C@H](C)COC(=O)CC=C[C@H]2C)cc1"
  Value Reported: 0.274
- Compound: "CCCC=C(CCC)[C@@H](NC(=O)c1ccc(-c2ccccc2)cc1)c1ccc(C(=O)OC)cc1"
  Value Reported: -1.62
- Compound: "CC(C)NC(=O)[C@@H]1c2ccccc2C(=O)N(CC23CC4CC(CC(C4)C2)C3)[C@H]1c1ccc(CO)cc1"
  Value Reported: 0.301
- Compound: "CO[C@@H]1COC(=O)CC=C[C@@H](C)COC(=O)[C@H](COCc2ccccc2)NC(=O)CC=C[C@H]1C"
  Value Reported: -0.382
- Compound: "COCCOC(=O)N1C(=O)[C@@]2(c3cc(C#CCNC(N)=O)ccc31)[C@H](c1ccccc1OCCO)N1[C@H](c3ccccc3)[C@H](c3ccccc3)OC(=O)[C@H]1[C@@H]2C(=O)N1CCN(c2ncccn2)CC1"
  Value Reported: 1.12
- Compound: "O=C1C[C@@H](O)[C@@H](O)[C@@H]2[C@@H]3C(=O)N(C4CCCCC4)C(=O)[C@@H]3CC[C@H]12"
  Value Reported: -0.189

Q. Would you mind telling me what z-score value was observed for CC(C)(C)N1C(=O)[C@H]2[C@H]3[C@H](O)[C@H](O)CC(=NOCc4ccccc4)[C@@H]3CC[C@H]2C1=O ?
A. 0.519

Q. Would you mind telling me what z-score value was observed for COCCOC(=O)N1C(=O)[C@@]2(c3ccccc31)[C@H](C(N)=O)[C@H]1C(=O)O[C@H](c3ccccc3)[C@H](c3ccccc3)N1[C@@H]2c1ccccc1OCCO ?
A. -4.53

Q. Would you mind telling me what z-score value was observed for C=C(COC)/C(=C/C[C@H](OC(=O)c1ccncc1)c1ccc(CO)o1)c1cc(C(=O)OC)ccc1OC ?
A. -0.111

Q. Would you mind telling me what z-score value was observed for C#C[C@@H]1Oc2ccccc2S(=O)(=O)N2CCC[C@H]12 ?
A. -1.71

Q. Would you mind telling me what z-score value was observed for O[C@@H](Cc1ccccc1)[C@H]1C2C=CCCC(c3ccccc3)=C2CN1Cc1cccc(Cl)c1 (stereo not given in full) ?
A. -3.43
